The next entries give measured pIC50 for UniProt P22303.
Sequence (P22303 whole entry): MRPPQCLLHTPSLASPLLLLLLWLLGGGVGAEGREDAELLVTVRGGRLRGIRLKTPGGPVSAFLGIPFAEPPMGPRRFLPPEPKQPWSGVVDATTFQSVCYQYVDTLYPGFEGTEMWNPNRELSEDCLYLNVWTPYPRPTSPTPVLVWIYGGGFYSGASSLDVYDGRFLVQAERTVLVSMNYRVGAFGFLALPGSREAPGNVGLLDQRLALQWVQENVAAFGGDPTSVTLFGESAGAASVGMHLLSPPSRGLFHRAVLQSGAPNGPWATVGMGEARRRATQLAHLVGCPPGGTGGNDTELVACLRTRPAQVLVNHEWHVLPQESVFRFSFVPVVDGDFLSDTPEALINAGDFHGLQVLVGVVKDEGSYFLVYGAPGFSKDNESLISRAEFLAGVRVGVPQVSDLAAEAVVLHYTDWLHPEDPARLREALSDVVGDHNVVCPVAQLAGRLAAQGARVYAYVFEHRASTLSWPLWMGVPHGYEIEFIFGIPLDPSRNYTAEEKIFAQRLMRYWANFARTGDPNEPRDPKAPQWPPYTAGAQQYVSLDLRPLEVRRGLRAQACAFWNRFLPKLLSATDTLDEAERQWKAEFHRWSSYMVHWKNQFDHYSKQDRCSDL
Give bare numbers, as −log10 of the molar value.

Consider the worked cases shown below.
Notebook: COc1ccc(NC(=S)NNC=C2C(=O)NC(=S)NC2=O)cc1 , pIC50 read as 3.69

Reported pIC50 for NC(=S)NNC=C1C(=O)NC(=O)NC1=O was 3.92

Look up pIC50 for the entries below, preserving their order.
1. O=C1NC(=S)NC(=O)C1=CNNC(=S)Nc1ccc(Br)cc1
2. O=C1NC(=O)C(=CNNC(=S)Nc2cccc(C(F)(F)F)c2)C(=O)N1
3. O=C1NC(=S)NC(=O)C1=CNNC(=S)Nc1ccc(Cl)cc1
4. O=C1NC(=S)NC(=O)C1=CNNC(=S)Nc1ccc(C(F)(F)F)cc1
5. O=C1NC(=S)NC(=O)C1=CNNC(=S)Nc1ccccc1
6. O=C(NNC=C1C(=O)NC(=S)NC1=O)Nc1ccccc1
7. CC(=O)NC=C1C(=O)NC(=O)NC1=O
8. O=C1NC(=S)NC(=O)C1=CNNC(=S)Nc1ccc(F)cc1

Return:
1. 4.10
2. 4.39
3. 3.92
4. 4.00
5. 3.94
6. 4.13
7. 4.04
8. 4.11
